- Tested on: Escherichia coli TOP10
- Protocol Description: shrunken log2 fold change of peptide-encoding DNA abundance (4.5 h post-induction vs induction); higher = less antimicrobial activity (less host growth inhibition)
- Condition Info: time post-induction: 4.5 h; library: site-saturation at positions 5, 18, 19, 20
Note to self: values exactly at -0.009 are yes (1). So shrunken log2 fold change at or above -0.009 is yes (1), below is no (0).

Example entries begin here.
Does RRIRERPPRLPRPRPRPHMKPRP have a reported shrunken log2 fold change of at least -0.009?
no (0)

Does RRIRIRPPRLPRPRPRPCGEPRP have a reported shrunken log2 fold change of at least -0.009?
no (0)

Continuing:
Does RRIRYRPPRLPRPRPRPKKPPRP have a reported shrunken log2 fold change of at least -0.009?
yes (1)

Does RRIRLRPPRLPRPRPRPNPAPRP have a reported shrunken log2 fold change of at least -0.009?
no (0)

Does RRIRRRPPRLPRPRPRPWPQPRP have a reported shrunken log2 fold change of at least -0.009?
yes (1)

Does RRIRLRPPRLPRPRPRPPTAPRP have a reported shrunken log2 fold change of at least -0.009?
yes (1)

Does RRIRRRPPRLPRPRPRPNCAPRP have a reported shrunken log2 fold change of at least -0.009?
yes (1)

Does RRIRRRPPRLPRPRPRPMPTPRP have a reported shrunken log2 fold change of at least -0.009?
yes (1)

Does RRIRLRPPRLPRPRPRPIPGPRP have a reported shrunken log2 fold change of at least -0.009?
yes (1)

Does RRIRDRPPRLPRPRPRPIMMPRP have a reported shrunken log2 fold change of at least -0.009?
no (0)

Does RRIRPRPPRLPRPRPRPSLLPRP have a reported shrunken log2 fold change of at least -0.009?
no (0)

Does RRIRKRPPRLPRPRPRPPPFPRP have a reported shrunken log2 fold change of at least -0.009?
yes (1)

Does RRIRGRPPRLPRPRPRPQDGPRP have a reported shrunken log2 fold change of at least -0.009?
yes (1)

Does RRIRDRPPRLPRPRPRPDSSPRP have a reported shrunken log2 fold change of at least -0.009?
yes (1)

Does RRIRIRPPRLPRPRPRPSRNPRP have a reported shrunken log2 fold change of at least -0.009?
no (0)

Does RRIRIRPPRLPRPRPRPNAIPRP have a reported shrunken log2 fold change of at least -0.009?
no (0)

Does RRIRSRPPRLPRPRPRPDGRPRP have a reported shrunken log2 fold change of at least -0.009?
yes (1)

Does RRIRHRPPRLPRPRPRPIVLPRP have a reported shrunken log2 fold change of at least -0.009?
yes (1)

Does RRIRGRPPRLPRPRPRPSSKPRP have a reported shrunken log2 fold change of at least -0.009?
yes (1)

Does RRIRIRPPRLPRPRPRPTTDPRP have a reported shrunken log2 fold change of at least -0.009?
no (0)

Does RRIRERPPRLPRPRPRPYQPPRP have a reported shrunken log2 fold change of at least -0.009?
yes (1)

----------
- Test system: Escherichia coli TOP10;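 note: peptides expressed intracellularly from a pBAD plasmid library in pooled LB shake-flask culture, induced with 0.3% L-arabinose, DNA abundance read by NGS, three biological replicates, DESeq2 with apeglm shrinkage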
- Protocol Description: shrunken log2 fold change of peptide-encoding DNA abundance (4.5 h post-induction vs induction); higher = less antimicrobial activity (less host growth inhibition)
- Condition Info: time post-induction: 4.5 h; library: site-saturation at positions 5, 18, 19, 20
Reported Property: shrunken log2 fold change
Just the number, please, no unit after it.

Guide cases for shrunken log2 fold change, answers given:
Need shrunken log2 fold change of RRIRRRPPRLPRPRPRPMVQPRP , thanks.
-0.00615

Need shrunken log2 fold change of RRIRQRPPRLPRPRPRPPSLPRP , thanks.
0.149

Need shrunken log2 fold change of RRIRYRPPRLPRPRPRPLGCPRP , thanks.
-0.198

Need shrunken log2 fold change of RRIRYRPPRLPRPRPRPNCEPRP , thanks.
-0.144

Need shrunken log2 fold change of RRIRFRPPRLPRPRPRPYVFPRP , thanks.
-0.408

Need shrunken log2 fold change of RRIRHRPPRLPRPRPRPVQIPRP , thanks.
-0.0126

Need shrunken log2 fold change of RRIRIRPPRLPRPRPRPSYVPRP , thanks.
-1.22

Need shrunken log2 fold change of RRIRSRPPRLPRPRPRPWVQPRP , thanks.
0.127

Need shrunken log2 fold change of RRIRTRPPRLPRPRPRPKFSPRP , thanks.
-0.189

Need shrunken log2 fold change of RRIRRRPPRLPRPRPRPPCIPRP , thanks.
0.156

Continuing:
Need shrunken log2 fold change of RRIRERPPRLPRPRPRPNKRPRP , thanks.
-0.164

Need shrunken log2 fold change of RRIRYRPPRLPRPRPRPLTIPRP , thanks.
-0.0265

Need shrunken log2 fold change of RRIRARPPRLPRPRPRPAHVPRP , thanks.
0.0804

Need shrunken log2 fold change of RRIRSRPPRLPRPRPRPENDPRP , thanks.
-0.0386

Need shrunken log2 fold change of RRIRGRPPRLPRPRPRPEPRPRP , thanks.
1.35

Need shrunken log2 fold change of RRIRIRPPRLPRPRPRPISRPRP , thanks.
-0.0044

Need shrunken log2 fold change of RRIRTRPPRLPRPRPRPYGAPRP , thanks.
-0.0628

Need shrunken log2 fold change of RRIRRRPPRLPRPRPRPCAQPRP , thanks.
-0.0794
